# experimental target: Sterol O-acyltransferase 2 (Chlorocebus aethiops)
# Sequence (O77759 whole entry): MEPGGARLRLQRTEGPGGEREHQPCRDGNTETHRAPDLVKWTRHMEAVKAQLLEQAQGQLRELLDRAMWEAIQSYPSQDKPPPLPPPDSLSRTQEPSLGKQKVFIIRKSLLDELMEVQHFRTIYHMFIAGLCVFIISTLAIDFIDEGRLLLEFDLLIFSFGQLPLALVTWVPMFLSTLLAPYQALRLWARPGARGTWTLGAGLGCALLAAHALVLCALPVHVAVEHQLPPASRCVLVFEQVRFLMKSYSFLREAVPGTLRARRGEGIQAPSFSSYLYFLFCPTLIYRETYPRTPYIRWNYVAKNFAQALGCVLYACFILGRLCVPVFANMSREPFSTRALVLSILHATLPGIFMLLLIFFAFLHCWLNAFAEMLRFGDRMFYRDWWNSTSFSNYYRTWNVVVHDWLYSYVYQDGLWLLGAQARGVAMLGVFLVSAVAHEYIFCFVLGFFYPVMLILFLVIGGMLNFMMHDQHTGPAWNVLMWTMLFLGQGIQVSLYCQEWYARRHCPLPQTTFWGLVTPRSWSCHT
# assay explanation: Inhibition of African green monkey SOAT2 expressed in CHO cells assessed as reduction in [14C]cholesteryl ester formation from [1-14C]oleic acid measured after 6 hrs
measurement label: IC50 (µM)

In [3]: df
Out[3]:
                                   compound  measurement_label  test_value
0  CCC[C@@H]1C[C@@H](NCc2ccccc2)C[C@@]2(O1)C(=O)Nc1cccc(Br)c12 (racemic)               IC50          12
1  CCC[C@@H]1C[C@@H](NCc2ccccc2)C[C@@]2(O1)C(=O)N(Cc1ccccc1)c1ccccc12 (racemic)               IC50         9.1
2  CCC[C@@H]1CC(=O)C[C@@]2(O1)C(=O)N(C)c1cccc(Br)c12               IC50         9.3

Ref: ChEMBL document CHEMBL3868631
